Form field: Dog PPB (FUplasma), fraction unbound in plasma (fraction unbound) (one value per entry).
molecular target: dog plasma proteins; experiment: plasma protein binding, ultracentrifugation, LC-MS/MS
Starred links: 1 amine or outer side, 2 acyl side, 3 side chain; linkers in the order of their positions; H or OH if unused. Non-standard residues stand in square brackets, D forms with d. Groups on a side chain read outwards from the residue. No end group written: not given here. *: point of attachment. C18 diacid = O=C(O)CCCCCCCCCCCCCCCCC(=O)*; C17 diacid = O=C(O)CCCCCCCCCCCCCCCC(=O)*; γGlu = O=C(O)[C@H](CCC(=O)[*:2])N[*:1]; NMeY = CN[C@@H](Cc1ccc(O)cc1)C(=O)O; AEEA = NCCOCCOCC(=O)O; Aib = CC(C)(N)C(=O)O
Measurement label: Dog PPB (FUplasma), fraction unbound in plasma (fraction unbound)

In [3]: df
Out[3]:
                                     binder  bound_operator  measured_result
0  [NMeY][Aib]EGTFISDYSIALDR[Aib]K([AEEA-AEEA-γGlu-γGlu-C18 diacid])Q[Aib]NFVNWLLAQSPSSGAPPPS-NH2 [Compound No. 293]               <            0.002
1  [NMeY][Aib]EGTFISDYSIALDR[Aib]AQ[Aib]K(2OEGgEgE‑C20 diacid)FVNWLLAQKG-OH [Compound No. 39]               =           0.0015
2  [NMeY][Aib]EGTFISDYSI[Aib]LDR[Aib]AQ[Aib]NFVNWLLAQK([AEEA-AEEA-γGlu-γGlu-C18 diacid])PSSGAPPPS-NH2 [Compound No. 27]               <            0.002
3  [NMeY][Aib]EGTFISDYSIALDR[Aib]AQ[Aib]K([AEEA-AEEA-γGlu-γGlu-C17 diacid])FVNWLLAQRG-OH [Compound No. 36]               =           0.0034
4  [NMeY][Aib]EGTFISDYSI[Aib]LDR[Aib]AQ[Aib]NFVNWLLAQK([AEEA-AEEA-γGlu-γGlu-C17 diacid])PSSGAPPPS-NH2 [Compound No. 16]               <          0.00116
